Where do these numbers come from? They come from patent US9980943B2.

Tested on: β-galactosidase in CMV-LacZ C2C12 myoblasts
Assay: CMV-LacZ secondary screen in C2C12 myoblasts (β-Gal stabilizing assay)
Type: cell-based, mouse
Conditions: 40 uM; CMV-LacZ C2C12 myoblasts
Source text: In order to determine compounds that acted to stabilize β-gal in myogenic cells, a CMV-LacZ C2C12 cell line was used in a secondary screen. The EGFP gene from the pEGFP (Clontech) vector was replaced by LACZ PCR product with digests of the vector/PCR product performed using EcoRI (NEB) and NotI (NEB) and ligated using T4 DNA Ligase (NEB) following standard procedures to produce the CMV-LACZ vector. […]
Outcome label depends on CMV-LACZ in Myoblasts (β-galactosidase activity relative to DMSO) relative to 0.9: at/above gives criterion met, below gives criterion not met.

Consider the worked cases shown below.
COMPOUND: COCCSc1ccccc1C(=O)Nc1cc(C)cc(C)c1
SYSTEM: β-galactosidase in CMV-LacZ C2C12 myoblasts
CLASS_LABEL: criterion not met
//
COMPOUND: O=C(O)CC1(c2ccccc2)C(=O)c2ccccc2C1=O
SYSTEM: β-galactosidase in CMV-LacZ C2C12 myoblasts
CLASS_LABEL: criterion not met
//
COMPOUND: CC(O)CNc1nc2c(c(=O)n(Cc3ccc(Br)cc3)c(=O)n2C)n1C (stereo not shown)
SYSTEM: β-galactosidase in CMV-LacZ C2C12 myoblasts
CLASS_LABEL: criterion met
//
COMPOUND: CCOC(=O)C1(Cc2cccc(Cl)c2)CCCN(C(=O)CCSC)C1 (stereo not shown)
SYSTEM: β-galactosidase in CMV-LacZ C2C12 myoblasts
CLASS_LABEL: criterion met
//
COMPOUND: CCOC(=O)C1=C(CC)Nc2ccccc2N=C1NC(=O)c1ccc(OC)c(S(=O)(=O)N2CCCCC2C)c1 (stereo not shown)
SYSTEM: β-galactosidase in CMV-LacZ C2C12 myoblasts
CLASS_LABEL: criterion not met
//
COMPOUND: CCOC(=O)c1cc(-c2cccs2)nc2c1c(C)nn2-c1ccccn1
SYSTEM: β-galactosidase in CMV-LacZ C2C12 myoblasts
CLASS_LABEL: criterion not met
//
COMPOUND: Nc1cccc(/C=C/C(=O)O)c1
SYSTEM: β-galactosidase in CMV-LacZ C2C12 myoblasts
CLASS_LABEL: criterion met
//
COMPOUND: CCCCN1CC(=O)N2Cc3[nH]c4ccccc4c3C[C@H]2C1=O
SYSTEM: β-galactosidase in CMV-LacZ C2C12 myoblasts
CLASS_LABEL: criterion met

Problem: Hi team, for "O=C(Nc1cc(-c2nc3ccccc3s2)ccc1Cl)c1ccc2c(c1)OCO2" , is the recorded CMV-LACZ in Myoblasts (β-galactosidase activity relative to DMSO) at or above 0.9?
Solution: criterion met

Problem: Given "CC(C)c1ccc(OC(=O)c2cccc(S(=O)(=O)N3CCN(C)CC3)c2)cc1" , state whether its CMV-LACZ in Myoblasts (β-galactosidase activity relative to DMSO) is at least 0.9.
Solution: criterion not met
